tested on: DU-145 prostate; assay: NCI tumour cell line growth inhibition, 48 h; in the data active = GI50 below about 0.43 µM; inactive = the rest
// allowed return values: active, inactive

Previously resolved entries follow.
                                   compound  class_label
0  CCCNc1cccc(-n2ncc3c(N/N=C/c4ccncc4)ncnc32)c1     inactive
1  FC(F)(F)c1cc(NC2=NCCN=C(Nc3cc(C(F)(F)F)cc(C(F)(F)F)c3)SS2)cc(C(F)(F)F)c1     inactive
2  Cc1nc2sc(C(=O)Nc3cccc(Cl)c3C)c(N)c2cc1C(C)O (centres undefined)       active

Answer briefly: the call reported for CC[C@H](C)[C@H](NC(=O)c1nccn1C)C(=O)N(C)[C@H](C[C@@H](OC(C)=O)c1nc(C(=O)N[C@@H](Cc2ccccc2)C[C@H](C)C(=O)OC)cs1)C(C)C in this assay.
inactive

Attribution: PubChem BioAssay (NCI)
